target: T1, PUF4 RNA-binding domain (Saccharomyces cerevisiae, UniProt P25339 537-888)
T1 sequence: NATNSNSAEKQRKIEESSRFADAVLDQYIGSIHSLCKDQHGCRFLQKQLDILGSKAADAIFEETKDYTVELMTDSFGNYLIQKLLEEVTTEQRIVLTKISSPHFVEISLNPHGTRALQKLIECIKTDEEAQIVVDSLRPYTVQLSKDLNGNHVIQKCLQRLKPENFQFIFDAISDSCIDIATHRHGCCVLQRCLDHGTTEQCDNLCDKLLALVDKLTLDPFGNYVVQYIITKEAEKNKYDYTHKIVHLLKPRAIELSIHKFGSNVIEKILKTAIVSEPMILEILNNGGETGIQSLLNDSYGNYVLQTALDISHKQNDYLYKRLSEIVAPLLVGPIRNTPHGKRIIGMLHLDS
assay.summary: Mg; RNA-MaP; 20 mM Na-HEPES pH 7.4, 30 mM KOAc, 0.75 mM MgCl2, 0.1% Tween-20, 5% glycerol, 0.1 mg/mL BSA, 2 mM DTT; 25 C; 0.0125-409.6 nM protein
test.conditions: tags: N-His6-TEV cleaved; C-SNAP kept, Cy3B-labelled; label: tethered on chip by stalled RNA polymerase
Exercise: for every item that follows, state its recorded log10 of Kd.
On a log10 scale: recorded Kd, unit nM.

// log10 of Kd value for Id_ii_S2_P3E.3_K3.2_C3.2_[C-2T]_H3.2_A3.1_F3.1_T3.2_[A10C] (ssRNA) RNA: UUUGAUUAAUAUGAUAUCGUUCUUUCUUUUAUAUAUAUCUUCUUUCUCGAUAUCAUAUUAAUCUUU : 2.11

Documented log10 of Kd of Id_ii_S4_P5E.3_K5.2_C5.2_[C-2G]_H5.2_A5.1_F5.1_T5.2_[T11G]_[A12T] (ssRNA) RNA: UUUGACAACUGAUCGUUCUUUCUGUUAUAUUAUUAGUUUCUUUCUCGAUCAGUUGUCUUU : 1.71

The reported log10 of Kd of the binder Ic_S4_P4E.1_K4.1_C4.1_H4.1_A4.1_[A6T]_[T7C]_F4.1_[T8G]_[A9C]_T4.1 (ssRNA) RNA: UUUGACAACUGAUCGUUCUUUCUUGUAUUCGCUUCUUUCUCGAUCAGUUGUCUUU was 2.62

# log10 of Kd of UCUCUUUGUAUACCCUUUAUCUCUU (ssRNA) [Ie_S1_P4E.1_K4.1_C4.1_H4.1_A4.1_[+6CCCT]_F4.1_T4.1] = 1.69

Entry Ia_S2_P5E.1_K5.1_C5.1_H5.1_A5.1_[A7C]_F5.1_T5.1 (ssRNA) RNA: UUUGAUUAAUAUGAUAUCGUUCUUUCUUGUAUUCUUAUUCUUUCUCGAUAUCAUAUUAAUCUUU ; log10 of Kd = 0.49
